- TARGET DESC: T1, IL10Rα/IL2Rγ receptor (human) (UniProt Q13651)
- T1 sequence (looked up) 1: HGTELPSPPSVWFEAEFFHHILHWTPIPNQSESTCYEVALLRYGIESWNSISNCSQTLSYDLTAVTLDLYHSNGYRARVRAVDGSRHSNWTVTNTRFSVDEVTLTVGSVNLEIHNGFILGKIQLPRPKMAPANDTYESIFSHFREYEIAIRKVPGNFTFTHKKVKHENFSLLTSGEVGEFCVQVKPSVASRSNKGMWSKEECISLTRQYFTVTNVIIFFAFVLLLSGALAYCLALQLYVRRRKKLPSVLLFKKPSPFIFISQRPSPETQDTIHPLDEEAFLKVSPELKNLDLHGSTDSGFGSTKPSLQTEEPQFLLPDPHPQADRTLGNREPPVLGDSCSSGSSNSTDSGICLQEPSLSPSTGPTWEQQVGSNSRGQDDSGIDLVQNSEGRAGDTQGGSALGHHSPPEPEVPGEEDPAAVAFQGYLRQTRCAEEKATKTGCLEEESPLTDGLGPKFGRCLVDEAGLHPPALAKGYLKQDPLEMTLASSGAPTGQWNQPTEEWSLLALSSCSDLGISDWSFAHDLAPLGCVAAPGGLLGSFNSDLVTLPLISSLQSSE
- T1 sequence (looked up) 2: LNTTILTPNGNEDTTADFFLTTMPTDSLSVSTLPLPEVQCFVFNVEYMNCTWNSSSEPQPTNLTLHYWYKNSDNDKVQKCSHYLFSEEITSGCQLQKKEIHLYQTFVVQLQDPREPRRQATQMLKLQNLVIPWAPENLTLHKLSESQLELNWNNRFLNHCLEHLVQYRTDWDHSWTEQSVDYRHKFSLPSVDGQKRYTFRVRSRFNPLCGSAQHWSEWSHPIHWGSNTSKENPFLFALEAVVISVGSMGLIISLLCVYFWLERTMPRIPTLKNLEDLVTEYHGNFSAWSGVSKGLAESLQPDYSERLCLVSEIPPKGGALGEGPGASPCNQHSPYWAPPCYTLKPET
- PROTOCOL: cell-based or functional assay
MEASURED METRIC: IL-9 secretion, CD8 T cells, at 10 µM (pg/mL)
# unit: pg/mL | format: bare number

Prompt: GET /values?readout=IL-9 secretion, CD8 T cells, at 10 µM&item= hIL10Ra_VHH14 - hIL2Rg_VHH19, linker GGSGGS, tag his (bispecific antibody, not shown: small tags and cut ends) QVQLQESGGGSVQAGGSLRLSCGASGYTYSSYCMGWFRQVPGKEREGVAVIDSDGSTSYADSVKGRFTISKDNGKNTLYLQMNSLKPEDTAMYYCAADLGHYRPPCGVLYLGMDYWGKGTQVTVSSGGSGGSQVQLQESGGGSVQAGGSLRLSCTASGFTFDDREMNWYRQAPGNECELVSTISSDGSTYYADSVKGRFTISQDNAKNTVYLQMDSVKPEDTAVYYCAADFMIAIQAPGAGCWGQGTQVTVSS
Completion: 1600

Taken from patent US20250163162A1.
